All values here come from PubChem BioAssay (NCI).

# Tested on: UO-31 renal
# PROTOCOL: NCI tumour cell line growth inhibition, 48 h
Catalogue of TGI readings, one per entry.

Give the reported TGI for this molecule. `CC(C)(C)/C(=N\Nc1nc2ccccc2[nH]1)c1ccccn1`
> 100 µM

Give the reported TGI for this molecule. `Cc1cccc(C(C)C)c1NC(=O)/C(Cc1c([N+](=O)[O-])cccc1[N+](=O)[O-])=N/NC(=O)CC#N`
> 100 µM

Give the reported TGI for this molecule. `Cc1ccc(NC(=O)CC(=O)n2nc(C)c(N=Nc3ccccc3C(=O)O)c2C)cc1`
> 100 µM

###

# System: SW-620 colon
# PROTOCOL: NCI tumour cell line growth inhibition, 48 h
EXPERIMENTAL_READOUT: TGI

// fetch TGI; item: `C=C1[C@H](OC(C)=O)[C@H]2[C@@H](OC(C)=O)[C@@H](C)C[C@]2(C)C(=O)[C@H](C)/C=C/C(C)(C)C(=O)[C@H](OCC(C)C)[C@H]1OC(C)=O` ; system: SW-620 colon
> 25 µM

// fetch TGI; item: NCCCCC(NC(=O)C(N)Cc1ccc(O)cn1)C(=O)O (stereo not drawn) ; system: SW-620 colon
> 100 µM

// fetch TGI; item: `O=C(O)c1nn(-c2ccccc2-c2n[nH]c(=O)[nH]c2=O)c(=O)[nH]c1=O` ; system: SW-620 colon
> 100 µM

// fetch TGI; item: O=C(CC1(O)C(=O)Nc2ccccc21)c1ccncc1 (stereo not drawn) ; system: SW-620 colon
> 100 µM

// fetch TGI; item: `CCOC(=O)/C(C#N)=C/c1[nH]c(C(=O)OCc2ccccc2)c(C)c1C` ; system: SW-620 colon
> 100 µM

// fetch TGI; item: Cc1ccc(C(=O)N(CCCN)C(c2oc3cc(Cl)ccc3c(=O)c2Cc2ccccc2)C(C)C)cc1 (stereo not drawn) ; system: SW-620 colon
1.45 µM

// fetch TGI; item: `COc1ccc2c(c1)CCCN2c1c2ccccc2nc2ccccc12` ; system: SW-620 colon
> 100 µM

// fetch TGI; item: `O=C(NC12CC3CC(CC(F)(C3)C1)C2)c1ccccc1` ; system: SW-620 colon
> 100 µM
